# SYSTEM_UNDER_TEST: TJP1_2, Q07157
# Sequence (Q07157 181-274): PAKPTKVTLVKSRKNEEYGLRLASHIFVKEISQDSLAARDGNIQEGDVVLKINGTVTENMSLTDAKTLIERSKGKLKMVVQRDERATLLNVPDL
# TEST_DESCRIPTION: holdup assay
# Design: key: below the threshold = too weak to quantify, mostly under pKd 3.1 to 4
# PROTOCOL_CONDITIONS: plain residues with an end cap or a label only (N-terminal biotin on a linker: ado-ado)

BINDER: RDPPAEWTRV [PTPN18, Q99952]
pKd: below the threshold
//
BINDER: STKRKLASAV [NCF1, P14598]
pKd: below the threshold
//
BINDER: DGVNEKVSCV [HTR2A, P28223]
pKd: below the threshold
//
BINDER: MQHQRTHTRV [ZSCAN30, Q86W11]
pKd: below the threshold
//
BINDER: SFISKKEWYV [NECTIN1, Q15223]
pKd: below the threshold
//
BINDER: QLSFNTDTLC [ABCA2, Q9BZC7]
pKd: below the threshold
//
BINDER: SLNANEVEWF [RNF130, Q86XS8]
pKd: 4.2
//
BINDER: LAHVKHKEQI [AQP3, Q92482]
pKd: below the threshold
